# system_name: Botulinum neurotoxin type A light chain (Clostridium botulinum A ATCC 3502)
# experiment: BoNT/A light chain protease inhibitors, dose response, biochemical, powder set 03 (AID 720673)
# condition_context: BoNT/A LC protease, multiplex microsphere substrate cleavage assay
Activity calls are given as the source filed them. How the calls were made is not given here.
measure: EC50

Known EC50 results, listed for orientation:
structure_smiles_string | EC50
O=S(=O)(Nc1ccc2nc(-c3cccs3)c(-c3cccs3)nc2c1)C1CC1 | > 20 µM (inactive)
CCCS(=O)(=O)Nc1ccc2nc(-c3cccs3)c(-c3cccs3)nc2c1 | > 20 µM (inactive)
COc1cccc(-c2cn3nc(-c4ccccc4)c(-c4ccccc4)nc3n2)c1 | 16.2 µM
COc1ccc(-c2nc3nc(-c4cccc(F)c4)cn3nc2-c2ccc(OC)cc2)cc1 | 7 µM
O=S(=O)(Nc1ccc2nc(-c3ccccc3)c(-c3ccccc3)nc2c1)C1CC1 | > 20 µM (inactive)

Lab note: each compound below needs its EC50 filled in.
1. Fc1ccc(-c2nc3nc(-c4cccc(F)c4)cn3nc2-c2ccc(F)cc2)cc1
2. Fc1ccc(-c2nc3nc(-c4ccccc4)cn3nc2-c2ccc(F)cc2)cc1
3. Cc1ccc(-c2cn3nc(-c4ccc(F)cc4)c(-c4ccc(F)cc4)nc3n2)cc1
4. CCCOC(=O)Nc1ccc2nc(-c3cccs3)c(-c3cccs3)nc2c1

output:
1. 8.6 µM
2. 11.1 µM
3. 7.7 µM
4. > 20 µM (inactive)

Lab note: each compound below needs its EC50 filled in.
1. O=C(Nc1ccc2nc(-c3ccccc3)c(-c3ccccc3)nc2c1)C1CCCC1
2. O=C(Nc1ccc2nc(-c3cccs3)c(-c3cccs3)nc2c1)C1CCCC1
3. COC(=O)Nc1ccc2nc(-c3cccs3)c(-c3cccs3)nc2c1
4. COc1ccc(-c2nc3nc(-c4ccccc4)cn3nc2-c2ccc(OC)cc2)cc1

output:
1: > 20 µM (inactive); 2: > 20 µM (inactive); 3: > 20 µM (inactive); 4: 9.2 µM

###

# system_name: Botulinum neurotoxin type A light chain (Clostridium botulinum A ATCC 3502)
# experiment: BoNT/A light chain protease inhibitors, dose response, biochemical, powder set 03 (AID 720673)
# condition_context: BoNT/A LC protease, multiplex microsphere substrate cleavage assay
The source made the active and inactive calls. No rule for the calls is given here.
measure: EC50

Known EC50 results, listed for orientation:
compound | system_name | EC50
Cc1ccc(-c2nc3nc(-c4ccc(C#N)cc4)cn3nc2-c2ccc(C)cc2)cc1 | Botulinum neurotoxin type A light chain (Clostridium botulinum A ATCC 3502) | 4.7 µM
CC(Oc1ccccc1)C(=O)Nc1ccc2nc(-c3ccccc3)c(-c3ccccc3)nc2c1 (stereo not given) | Botulinum neurotoxin type A light chain (Clostridium botulinum A ATCC 3502) | > 20 µM (inactive)
Cc1ccc(-c2nc3nc(-c4ccc(S(C)(=O)=O)cc4)cn3nc2-c2ccc(C)cc2)cc1 | Botulinum neurotoxin type A light chain (Clostridium botulinum A ATCC 3502) | 7.6 µM
CC(C)OC(=O)Nc1ccc2nc(-c3ccccc3)c(-c3ccccc3)nc2c1 | Botulinum neurotoxin type A light chain (Clostridium botulinum A ATCC 3502) | > 20 µM (inactive)
O=C(Nc1ccc2nc(-c3ccccc3)c(-c3ccccc3)nc2c1)NC1CCCC1 | Botulinum neurotoxin type A light chain (Clostridium botulinum A ATCC 3502) | > 20 µM (inactive)

Lab note: each compound below needs its EC50 filled in.
1. COc1ccccc1-c1cn2nc(-c3ccccc3)c(-c3ccccc3)nc2n1
2. N#Cc1ccc(-c2cn3nc(-c4ccc(F)cc4)c(-c4ccc(F)cc4)nc3n2)cc1

output:
1: 10.9 µM; 2: > 20 µM (inactive)
